test system: SK-MEL-2 melanoma; assay: NCI-60 one-dose screen, 48 h; settings: 10 µM unless noted
About 83,000 compounds went through this panel and 20% of them were active in at least one assay; those are over-represented in the sample as a whole. The source made the active and inactive calls. How the source made its calls: active means growth percent below 10; inactive means the rest.
Please reply with one of these outcomes: active, inactive

Sample answers from the record:
Query: Identify the outcome logged in this assay for the compound shown: "CN(C)CCCNC(=O)c1cc(NC(=O)c2cc(NC(=O)c3ccc(C#Cc4ccccc4)cc3)cn2C)cn1C"
Response: active

Query: Identify the outcome logged in this assay for the compound shown: "CCN(CC)C(=O)N/C(N)=N/c1nc2ccccc2s1"
Response: inactive

Query: Identify the outcome logged in this assay for the compound shown: "CCOc1ccc(-c2c(C#N)c(-c3ccc(Cl)cc3)nc3n[nH]c(-c4ccc(Cl)cc4)c23)cc1OC"
Response: inactive

Query: Identify the outcome logged in this assay for the compound shown: "CSc1ccc(C(=O)Nc2ccc3nn(/C(C#N)=C/c4ccccn4)nc3c2)cc1"
Response: active

Query: Identify the outcome logged in this assay for the compound shown: C=C1CC[C@@H]2[C@]3(C)COC(c4ccccc4)O[C@@H]3CC[C@@]2(C)[C@@H]1C/C=C1/C(=O)OCC1OC(C)=O (some centres undefined)
Response: active

Query: Identify the outcome logged in this assay for the compound shown: "O=C(CN1C(=O)/C(=C/c2ccccc2F)SC1=S)N1CCOCC1"
Response: inactive

Next:
Query: Identify the outcome logged in this assay for the compound shown: COc1ccc2oc(=O)c(C3(C)NC(=O)c4c(/C=C/C(=O)OC(C)(C)C)cccc4N3)cc2c1 (centres undefined)
Response: active

Query: Identify the outcome logged in this assay for the compound shown: "O=C1Nc2ccc([N+](=O)[O-])cc2C1=Nc1ccccc1"
Response: inactive

Query: Identify the outcome logged in this assay for the compound shown: CC1=C(C(=O)OCc2ccccc2)C(c2ccc(-n3cncn3)cc2)n2c(nc3ccccc32)N1 (centres undefined)
Response: inactive

----------
system: NCI-H460 lung; test: NCI-60 one-dose screen, 48 h; details: 10 µM unless noted
The panel holds about 83,000 compounds, 20% with a hit somewhere; the sample as a whole holds those more often. Active and inactive are the calls of the source. How the source made its calls: active means growth percent below 10; inactive means the rest.
Please reply with one of these outcomes: 1.0 = active, 0.0 = inactive

Sample answers from the record:
Query: Identify the outcome logged in this assay for the molecule shown: "COc1cc2oc(-c3cccc(C(=O)Nc4ccc(Cl)cc4)c3)cc(=O)c2c(OCCNC(=O)[C@H](CO)NC(=O)OC(C)(C)C)c1OC"
Response: 1.0

Query: Identify the outcome logged in this assay for the molecule shown: Cc1ccc(C2=NN(c3nc(-c4cc5ccccc5oc4=O)cs3)C(c3ccc(C)cc3)C2)cc1 (stereo not given)
Response: 0.0

Next:
Query: Identify the outcome logged in this assay for the molecule shown: "Cc1cc(C)cc(NC(=O)Cn2cc(COn3nnc4ccccc43)nn2)c1"
Response: 0.0

Query: Identify the outcome logged in this assay for the molecule shown: "COc1cc(/C=C/C(=O)c2ccc(C)cc2)ccc1Oc1nc(Nc2ccc(F)cc2)nc(N(C)C)n1"
Response: 0.0

Query: Identify the outcome logged in this assay for the molecule shown: "O=C(NNc1nc2cc(F)ccc2n2c(C(=O)N3CCN(C4CC4)CC3)ccc12)c1ncccn1"
Response: 1.0

----------
Below, each of the compounds is paired with its reported growth value.
system: BT-549 breast; assay: NCI-60 one-dose screen, 48 h (100 = growth as untreated, 0 = no growth, -100 = all killed); details: 10 µM unless noted
This is part of a sample that, as a whole, favours compounds with a hit. Of some 83,000 tested, about 20% had one in any assay.
Give the quantity in %, number only.

Query: // growth lookup, key: "COc1ccc(/C=C/c2n(Cc3ccc4ccccc4c3)c3ccccc3[n+]2Cc2ccc3ccccc3c2)cc1"
Response: -93.1

Query: // growth lookup, key: COCOc1ccc2c(=O)c(C)c(C(=O)N[C@@H](Cc3ccccc3)C(O)C(=O)NCCc3ccc(OC)cc3)oc2c1 (some centres not stated)
Response: 122

Query: // growth lookup, key: "Cn1cc(-c2cc3nc(-c4cn(C)c5ncccc45)cc(N)n3n2)c2ccccc21"
Response: -34.7

----------
test system: NCI/ADR-RES ovarian; assay: NCI-60 one-dose screen, 48 h (100 = growth as untreated, 0 = no growth, -100 = all killed); conditions: 10 µM unless noted
About 83,000 compounds went through this panel and 20% of them were active in at least one assay; those are over-represented in the sample as a whole.
recordedMetric: growth (%)
Give the quantity in %, number only.

Query: // growth lookup, key: "COc1ccc(NC(=O)Cn2c3c(sc2=O)[C@H]2[C@@H](O)[C@@H](O)[C@H](O)[C@@H]2CS3)cc1"
Response: 107

Query: // growth lookup, key: "COc1ccc2[nH]c(O)c(N=NC(=O)Cn3c(-c4ccccc4)nc4cc(C)ccc43)c2c1"
Response: -5.85

Query: // growth lookup, key: C=C1CC[C@@H]2[C@]3(C)COC(c4ccco4)O[C@@H]3CC[C@@]2(C)[C@@H]1C/C=C1/C(=O)OCC1OC(C)=O (some centres undefined)
Response: 8.21

Query: // growth lookup, key: "COc1cc(-c2ccc(/C=N/NC(=O)c3[nH]c4ccc(Br)cc4c3-c3ccccc3)o2)cc(OC)c1OC"
Response: 59

Query: // growth lookup, key: "N/N=C(\N)c1c(N)nc(=S)[nH]c1-c1ccc(Cl)cc1Cl"
Response: 114

Next:
Query: // growth lookup, key: "COc1ccc(C(=O)/C=C/c2c(F)cccc2Cl)cc1S(N)(=O)=O"
Response: 12.2

Query: // growth lookup, key: "COc1ccc(C(=O)/C=C/c2cccnc2)cc1S(N)(=O)=O"
Response: 69.1

Query: // growth lookup, key: "Cn1cc(-c2cc3nc(-c4cn(C)c5ncc(Br)cc45)cc(N)n3n2)c2ccccc21"
Response: -23.5

Query: // growth lookup, key: "C#CCOc1ccc(/C=N/Nc2nc(-c3ccc(F)cc3)cs2)cc1OC"
Response: 32.2

----------
tested on: MALME-3M melanoma; test: NCI-60 one-dose screen, 48 h; conditions: 10 µM unless noted
Compounds without any hit were thinned out: in the full panel of roughly 83,000, 20% have a hit. Activity calls are given as the source filed them. Rule for the calls: active = growth percent below 10; inactive = the rest.
Please reply with one of these outcomes: TRUE (active), FALSE (inactive)

Query: Identify the outcome logged in this assay for the compound shown: CC1(C)CC[C@]2(C(=O)Nc3ccc(Br)cc3)CC[C@]3(C)C(=CCC4[C@@]5(C)C[C@@H](O)[C@H](O)[C@@](C)(CO)C5CC[C@]43C)C2C1 (stereo partly specified)
Response: FALSE

Query: Identify the outcome logged in this assay for the compound shown: "COc1ccc(NC(=O)c2sc3nc(C(C)C)ccc3c2N)cc1"
Response: FALSE

Query: Identify the outcome logged in this assay for the compound shown: "COc1ccc(C(=O)Nc2n[nH]c(Nc3ccccc3)c2C#N)cc1"
Response: FALSE

Query: Identify the outcome logged in this assay for the compound shown: "Nc1nnc(-c2c[nH]c3ccc(Br)cc23)c(-c2c[nH]c3ncc(Br)cc23)n1"
Response: FALSE

Query: Identify the outcome logged in this assay for the compound shown: COc1cc2c(c(OC)c1OC)C(=O)CC(c1cccc(NC(=O)c3cccc([N+](=O)[O-])c3)c1)O2 (stereo unspecified)
Response: FALSE

Query: Identify the outcome logged in this assay for the compound shown: "O=C(CN1C(=O)/C(=C/c2ccccc2F)SC1=S)N1CCOCC1"
Response: FALSE

Query: Identify the outcome logged in this assay for the compound shown: "COc1ccc(C(=O)/C=C/c2ccc(OCc3ccccc3)c(OC)c2)cc1OC"
Response: FALSE

Query: Identify the outcome logged in this assay for the compound shown: "COc1cc(-c2nc3cc(Cl)c(Cl)cc3[nH]2)ccc1OCc1nnc(-c2cccs2)o1"
Response: FALSE

Query: Identify the outcome logged in this assay for the compound shown: "Nc1cc2ccccc2c(=O)n1NC(=O)c1ccc(I)cc1"
Response: FALSE

Query: Identify the outcome logged in this assay for the compound shown: "CN1CCN(c2ccc(C(=O)/C=C/c3cc(C(F)(F)F)cc(C(F)(F)F)c3)cc2)CC1"
Response: TRUE

Query: Identify the outcome logged in this assay for the compound shown: "COc1ccc2[nH]cc(-c3nnc(N)nc3-c3c[nH]c4ncc(Br)cc34)c2c1"
Response: FALSE

Query: Identify the outcome logged in this assay for the compound shown: "COc1cccc(/C=C/c2nc3ccccc3c(=O)n2CC(=O)Nc2ccc(Cl)cc2)c1"
Response: FALSE

Query: Identify the outcome logged in this assay for the compound shown: "C/C(=N\Nc1ccc(S(N)(=O)=O)cc1)c1ccc(N=Nc2c(Nc3ccccc3)[nH][nH]c2=O)cc1"
Response: TRUE

Query: Identify the outcome logged in this assay for the compound shown: "CC(=O)Nc1ccc(-c2cn(-c3cccc(C(=O)Nc4ccc(N5CCN(C)CC5)cc4)c3)nn2)cn1"
Response: FALSE

Query: Identify the outcome logged in this assay for the compound shown: "CSc1ccc(NC(=O)c2ccc3nn(/C(C#N)=C/c4ccccn4)nc3c2)cc1"
Response: TRUE

Query: Identify the outcome logged in this assay for the compound shown: C=C1CC[C@@H]2[C@]3(C)COC(c4cn[nH]c4-c4ccc(OC)cc4)O[C@@H]3CC[C@@]2(C)[C@@H]1C/C=C1/C(=O)OCC1O (stereo partly specified)
Response: TRUE

Query: Identify the outcome logged in this assay for the compound shown: CC(/C=C1\SC(=S)N(CCCC(=O)NC(CC(C)C)C(=O)O)C1=O)=C\c1ccccc1 (stereo unspecified)
Response: FALSE
